# SYSTEM TESTED: Anti-CD28 Fab (SEQ ID NOs: 696, 697)
# Sequence (VH, as listed by the source, chain 1 of 2): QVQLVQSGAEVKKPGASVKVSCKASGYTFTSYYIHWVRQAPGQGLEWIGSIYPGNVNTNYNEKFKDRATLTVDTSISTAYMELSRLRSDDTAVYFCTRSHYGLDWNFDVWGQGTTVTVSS
# Sequence (VL, as listed by the source, chain 2 of 2): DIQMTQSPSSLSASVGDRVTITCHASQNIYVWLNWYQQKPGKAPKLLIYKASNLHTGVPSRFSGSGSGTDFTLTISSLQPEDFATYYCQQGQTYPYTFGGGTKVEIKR
# METHOD: phage ELISA; Fab-coated wells pre-incubated with CD28 antigen as competitor, anti-M13 HRP detection;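 further: crude clonal phage supernatants screened by ELISA, comparing wells pre-treated with CD28 antigen in blocker against wells given blocker only, bound phage read via HRP-linked anti-M13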
TEST READOUT: Anti-CD28 Fab signal in the presence of CD28 (phage binding ELISA)

BINDER	NUMBER
YCDGHLPEYMQKCL (Tested as clonal phage supernatant) [Phage-1093]	0.08
YCDGHLPRYMAKCL (Tested as clonal phage supernatant) [Phage-1092]	0.1
YCDGHAPQYMRKCL (Tested as clonal phage supernatant) [Phage-1101]	0.08
YCDGHAPLYIQKCL (Tested as clonal phage supernatant) [Phage-1095]	0.06
YCDGHMVQYMAKCL (Tested as clonal phage supernatant) [Phage-1089]	0.07

Attribution: patent US20260242478A1
